- Tested on: OVCAR-3 ovarian
- PROTOCOL SUMMARY: NCI tumour cell line growth inhibition, 48 h
So basically: TGI at 30 µM or higher? That is satisfied. Lower than 30 µM? That is not satisfied.

Textbook exercise: given the entry CC(C)CCn1c(=O)c2c(=O)[nH][nH]c2c2ccccc21 , state whether its TGI is greater than or equal to 30 µM. satisfied

Say whether CSc1nc2c(nc(N)n2C2OCC(O)C(O)C2O)c(=O)n1C (stereo unspecified) shows TGI of 30 µM or more. satisfied

Exam item: decide whether the reported TGI for Cn1c2ccccc2c(=NNc2ccc(C(=O)O)cc2)c2ccccc21 is at least 30 µM. satisfied

Exam item: decide whether the reported TGI for COC(=O)c1c(C)cccc1/C=C1\Cc2cc(C)cc(C)c2C1=O is at least 30 µM. satisfied

For this compound, is measured TGI 30 µM or higher? O=[N+]([O-])c1cccnc1NCC1(CO)CC(Cc2ccccc2)C1 (stereo unspecified) satisfied

Form field: TGI at least 30 µM? Entry: CN(C)c1ccc2cc(-c3ccccc3F)c(N)nc2c1 not satisfied

Determine whether measured TGI meets or exceeds 30 µM for Fc1ccc2[nH]c3c(NCCCN4CCOCC4)ncnc3c2c1 satisfied

# bool: TGI of Cc1cc(=O)oc2cc3c(cc12)Oc1ccccc1O3 >= 30 µM satisfied

API: above_or_equal(metric=TGI, cutoff=30 µM) for item Fc1cccc(COc2ccc(Nc3ncnc4cc(-c5ccc[nH]5)sc34)cc2Cl)c1 not satisfied

Given CCC1C(c2cc(OC)c(OC)c(OC)c2)c2cc3c(cc2OC1N1CCOCC1)OCO3 (stereo unspecified) , state whether its TGI is at least 30 µM. not satisfied

Given CC1(C)N=C(N)N=C(N)N1c1cccc(OCCOc2ccc([N+](=O)[O-])cc2)c1 , state whether its TGI is at least 30 µM. satisfied

Please tell me: is the compound O=C(O)c1cc(=O)c2[nH]c3ccccc3c2s1 at or over 30 µM in terms of TGI? satisfied

Reported TGI at or above 30 µM? CC(=O)c1cc([N+](=O)[O-])ccc1OCC(=O)O satisfied

Entry COc1ccc(-c2cc(-c3cc(OC)c(OC)c(OC)c3)cc(-c3cc4ccccc4oc3=O)n2)cc1 : is its TGI no less than 30 µM? satisfied

Dear colleague, could you confirm whether COc1cccc(C2c3cc4c(cc3OC(O)(CO)C2C(=O)O)OCO4)c1 (stereo unspecified) (tested in a mixture with another compound) has TGI at or above 30 µM? satisfied

Given the entry COc1cc(CNc2ccc(C(C)C)cc2)cc(OC)c1OC , answer whether its TGI meets or surpasses 30 µM. satisfied

In plain terms: is recorded TGI at least 30 µM for C[C@@H]1COCCN1c1cc(C2(S(C)(=N)=O)CC2)nc(-c2ccnc3[nH]ccc23)n1 (stereo partly specified) ? satisfied

Has COc1ccc(-c2cncn2-c2ccc(OC)cc2)cc1 a recorded TGI greater than or equal to 30 µM? satisfied

State whether the measured TGI reaches 30 µM, counting equality as reaching it, for COc1ccc2c3c1OC1c4[nH]c5ccccc5c4CC4(O)C(C2)N(C)CCC314 (stereo unspecified) satisfied

Please tell me: is the compound CC[C@@H](/C=C\CCC1(C[C@H](O)CCC=C(C)C)OCCO1)O[Si](C(C)C)(C(C)C)C(C)C at or over 30 µM in terms of TGI? satisfied

Hey, just so you know, these numbers are from PubChem BioAssay (NCI).
